Tested on: AURKA
Conditions: concentration: 1 μM,replicates: in singlicate; n = 1;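 further: KINOMEscan kinase panel screen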
Recorded Metric: %Inh (%)
Return type: number; implicit unit %.

Below are worked cases with known answers.
CCn1c(-c2nonc2N)nc2cncc(Br)c21: 14
Cc1ccc(CC(=O)N2CCc3cc(-c4cn(C)c5ncnc(N)c45)ccc32)cc1: 8
CNC(=O)c1ccccc1Nc1nc(Nc2cccc(CS(C)(=O)=O)c2)ncc1C.O=CO: 100
COc1cc2ncn(-c3cc(OCC4CCCCC4)c(C(N)=O)s3)c2cc1OC: 0
CN1CCN(CCNc2nc3cc(Oc4ccc(NC(=O)Nc5cc(C(F)(F)F)ccc5F)cc4)ccc3[nH]2)CC1.Cl.Cl: 9

stdin: I'm curious: which %Inh was measured for Cc1cccc2c(-c3ccncc3)c(-c3ccc(F)cc3)nn12.Cl tested on AURKA?
stdout: 7

stdin: Request: CC(=O)c1c(-c2ccncc2)[nH]c(-c2ccncc2)c1C
stdout: 0

stdin: Same again, this time with NC(=O)Nc1sc(-c2ccc(F)cc2)cc1C(N)=O
stdout: 55

stdin: Same question for Cn1ccc2ncnc(Oc3ccc(NC(=O)Nc4cnn(C(C)(C)C)c4)c(Cl)c3)c21 please.
stdout: 23

###

Tested on: GCN2(Kin.Dom.2,S808G)
Construct: gene EIF2AK4
Details: concentration: 1 μM,replicates: in singlicate; n = 1
Recorded Metric: %Inh (%)
Express your answer in %, writing the number without its unit.

Below are worked cases with known answers.
O=C(Nc1n[nH]c2cc(-c3ccco3)ccc12)C1CC1 [SB-737447]: 25
COc1cc(Nc2nccc(N3CCC(NC(=O)c4cccc(C#N)c4)C3)n2)cc(OC)c1OC (centres unmarked) [GSK1379751]: 9
COc1cc2c(Nc3ccc(NC(=O)c4ccccc4)cc3)ncnc2cc1OCCCN1CCOCC1 [GSK301329]: 4
C[C@@H](Oc1cc(-n2cnc3ccc(-c4ccncc4)cc32)sc1C(N)=O)c1ccccc1Cl [GSK483724]: 0
Cl.c1ccc(Oc2ccc(Nc3ccnc4cc(-c5ccc(CN6CCNCC6)o5)ccc34)cc2)nc1 [GW567142]: 0
CS(=O)(=O)Nc1ccc(-c2ccnc3[nH]ccc23)cc1 [GSK993273]: 0
CCCC(=O)Nc1n[nH]c2ncccc12 [SB-601436]: 0

stdin: Return reported %Inh; argument: Cc1ccc(C(=O)Nc2ccc(Oc3ccc4nc(NC(=O)C5CC5)cn4c3)c(F)c2)c(=O)n1-c1ccccc1
stdout: 72

###

# key: entry, value: %Inh
Test system: RIPK5
Conditions: concentration: 1 μM,replicates: in singlicate; n = 1

Below are worked cases with known answers.
O=c1[nH]cc(-c2ccc(O)cc2)c2sc(-c3ccncc3)cc12 [GSK1033723]: 5%
Cn1ccc2ncnc(Oc3ccc(NC(=O)Nc4ccnc(C(F)(F)F)c4)c(Cl)c3)c21: 0%
c1ccc(Oc2ccc(Nc3ccnc4ccc(-c5ccccn5)cc34)cc2)cc1 [GW407034]: 31%
Cn1ccc2ncnc(Oc3ccc(NC(=O)Nc4cccc(C(F)(F)F)c4)c(Cl)c3)c21: 11%
COc1cc2nccc(Nc3ccc(Oc4ccccc4)cc3)c2cc1OC.Cl [GI261656]: 50%

stdin: Would you kindly share the measured %Inh for CS(=O)(=O)Nc1ccc(-c2ccnc3[nH]ccc23)cc1 [GSK993273] ?
stdout: 0%

stdin: What would you report for O=C(Nc1ccc(Oc2ccc3nc(NC(=O)C4CC4)cn3n2)c(F)c1)c1cccn(-c2ccccc2)c1=O ?
stdout: 0%

stdin: Now try COc1cccc(OC)c1C(=O)Nc1cccc(-c2nn3ccccc3c2-c2ccnc(Nc3cccc(F)c3)n2)c1 [GSK361065] .
stdout: 32%

stdin: Ok, now O=C(Nc1n[nH]c2cc(-c3ccco3)ccc12)C1CC1 [SB-737447]
stdout: 3%

stdin: Likewise for Cl.c1ccc(Oc2ccc(Nc3ccnc4cc(-c5ccc(CN6CCNCC6)o5)ccc34)cc2)nc1 [GW567142] ?
stdout: 4%

stdin: Subsequent entry: CCOC(=O)N1CCC(n2cnc(-c3ccc(F)cc3)c2-c2ccnc(N)n2)CC1 [SB-219952]
stdout: 5%

stdin: Now the same for Cn1ccc2ncnc(Oc3ccc(NC(=O)Nc4cc(C(C)(C)C)on4)c(Cl)c3)c21
stdout: 11%

###

System: IGF1R
Conditions: concentration: 1 μM,replicates: in singlicate; n = 1
Recorded Metric: %Inh (%)
Field: numeric (%). Do not append units.

CS(=O)c1ccc(-c2coc3ccc(-c4n[nH]c(=O)o4)cc23)cc1 (stereo not shown): 13

stdin: I am curious: what %Inh value has been reported for Cc1ccn2nc(-c3ccc(F)cc3)c(-c3ccncc3)c2c1.Cl ?
stdout: 0

stdin: Then COc1ccc(Nc2nccc(N3CCC(NC(=O)c4cccc(C#N)c4)C3)n2)cc1 (stereo not shown) ?
stdout: 0

stdin: Another compound: Cc1nnc(-c2ccc3occ(-c4ccc(S(C)=O)cc4)c3n2)o1 (stereo not shown)
stdout: 10

###

Test system: MYLK2
Details: concentration: 1 μM,replicates: in singlicate; n = 1
Recorded Metric: %Inh
Include the unit after the number when you answer.

Consider the following illustrative entries.
O=C(NOCC1CC1)c1cc(Br)c(F)c(F)c1Nc1ccc(I)cc1Cl: 0%
O=C(Nc1cccc(C(F)(F)F)c1)c1cccc(Oc2ccc3nccn3n2)c1: 0%
NC(=O)c1ccc(-c2cc3ncnc(SCC(=O)O)c3s2)cc1: 0%
Cc1nnc(-c2ccc3occ(-c4ccc(S(C)=O)cc4)c3n2)o1 (stereo not drawn): 6%
CC(=O)Nc1nc2cnc(Nc3cc(NC(=O)c4cccc(CC(C)(C)C#N)c4)ccc3C)nc2s1: 0%

stdin: For Cc1cccc2c(-c3ccncc3)c(-c3ccc(F)cc3)nn12.Cl , what is its reported %Inh?
stdout: 2%

stdin: What about this compound? CS(=O)(=O)Nc1ccc(-c2ccnc3[nH]ccc23)cc1
stdout: 27%

stdin: What about this compound? CNC(=O)c1ccccc1Nc1nc(Nc2cccc(CS(C)(=O)=O)c2)ncc1C.O=CO
stdout: 18%

stdin: Likewise for NC(=O)Nc1sc(-c2ccc(F)cc2)cc1C(N)=O ?
stdout: 11%

stdin: Check O=C1NCCc2[nH]c(-c3ccncc3)cc21 too.
stdout: 20%

stdin: Quick one: COc1cc2ncn(-c3cc(OCC4CCCCC4)c(C(N)=O)s3)c2cc1OC
stdout: 9%

stdin: Proceed to CN1CCN(CCCNc2nccc(-c3c(-c4ccc(F)cc4)nn4cc(C(N)=O)ccc34)n2)CC1
stdout: 10%

###

Tested on: EPHA7
Settings: concentration: 1 μM,replicates: in singlicate; n = 1
Recorded Metric: %Inh (%)
Please respond with the number in % and leave the unit unwritten.

stdin: Fill blank: measured %Inh of the compound COc1cc2c(Nc3ccc(NC(=O)c4ccccc4)cc3)ncnc2cc1OCCCN1CCOCC1 is ____.
stdout: 6

stdin: What about OCCn1cc(-c2cnc3nnn(Cc4ccc5ncccc5c4)c3n2)cn1 ?
stdout: 0

stdin: Quick one: CCOC(=O)N1CCC(n2cnc(-c3ccc(F)cc3)c2-c2ccnc(N)n2)CC1
stdout: 1

###

Test system: LCK
Conditions: concentration: 1 μM,replicates: in singlicate; n = 1
Label scheme for %Inh: lower than 30% is -1, 30% and above is 1.

// below: answered compounds
Cn1ccc2ncnc(Oc3ccc(NC(=O)Nc4cncc(C(F)(F)F)c4)c(Cl)c3)c21: 1
CC(C)c1nc(-c2cccc(NS(=O)(=O)c3ccccc3)c2)c(-c2ccnc(Nc3ccc4c(c3)CN(C)CC4)n2)s1 [GSK1649598]: 1
COc1cccc(CNC(=O)NC2CCN(c3ccnc(Nc4cc(OC)c(OC)c(OC)c4)n3)C2)c1 (centres unmarked) [GSK1379765]: 1
CN1CCN(CCNc2nc3cc(Oc4ccc(NC(=O)Nc5cc(C(F)(F)F)ccc5F)cc4)ccc3[nH]2)CC1.Cl.Cl [GW768504]: -1
Cc1ccc(C(=O)Nc2ccc(Oc3ccc4nc(NC(=O)C5CC5)cn4c3)c(F)c2)c(=O)n1-c1ccccc1: 1

stdin: Does %Inh meet or surpass 30% for COc1cc2c(Nc3ccc(NC(=O)c4ccccc4)cc3)ncnc2cc1OCCCN1CCOCC1 [GSK301329] ?
stdout: 1

stdin: Also NC(=O)Nc1sc(-c2ccc(F)cc2)cc1C(N)=O [GW789449] , if possible.
stdout: 1

stdin: And for Cc1ccc2c(-c3ccnc(Nc4ccc(C(F)(F)F)cc4)n3)cnn2n1 [GW819776] ?
stdout: -1

stdin: Same question for Cn1ccc2ncnc(Oc3ccc(NC(=O)Nc4cccc(C(F)(F)F)c4)c(Cl)c3)c21 please.
stdout: 1

###

Tested on: TRPM6
Conditions: concentration: 1 μM,replicates: in singlicate; n = 1
Lab note: compare %Inh against 20%. Equal or greater, write y. Smaller, write n.

CNC(=O)c1ccccc1Nc1nc(Nc2cccc(CS(C)(=O)=O)c2)ncc1C.O=CO: y
NC(=O)Nc1sc(-c2ccc(F)cc2)cc1C(N)=O: n
Cc1ccc(Nc2ccnc(Nc3ccc4c(c3)CS(=O)(=O)C4)n2)cc1O.Cl: y
COc1cc(Nc2nccc(N3CCC(NC(=O)c4cccc(C#N)c4)C3)n2)cc(OC)c1OC (stereo not shown): n
C[C@@H](Oc1cc(-n2cnc3ccc(-c4ccncc4)cc32)sc1C(N)=O)c1ccccc1Cl: y

stdin: Quick check: does CCn1c(-c2nonc2N)nc2cncc(CNC3CCNCC3)c21.Cl have %Inh greater than or equal to 20%?
stdout: y

stdin: Now the compound Cc1cccc(-c2nc(Nc3ccncc3)c3sccc3n2)n1
stdout: y
